# Test system: HeLa Kyoto;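 note: HeLa Kyoto cells synchronized by double thymidine or nocodazole block, proteins quantified by TMT10plex mass spectrometry, three independent biological replicates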
# Procedure text: melting temperature (median over replicates), in situ; higher = more thermally stable
# Measurement context: cell cycle stage: G1/S
Measurement label: melting temperature (°C)
Expressed in °C, but write only the number.

Recorded melting temperature, per entry:
MSGGRAPAVLLGGVASLLLSFVWMPALLPVASRLLLLPRVLLTMASGSPPTQPSPASDSGSGYVPGSVSAAFVTCPNEKVAKEIARAVVEKRLAACVNLIPQITSIYEWKGKIEEDSEVLMMIKTQSSLVPALTDFVRSVHPYEVAEVIALPVEQGNFPYLQWVRQVTESVSDSITVLP [CUTA]    57.7
MLLLAAAFLVAFVLLLYMVSPLISPKPLALPGAHVVVTGGSSGIGKCIAIECYKQGAFITLVARNEDKLLQAKKEIEMHSINDKQVVLCISVDVSQDYNQVENVIKQAQEKLGPVDMLVNCAGMAVSGKFEDLEVSTFERLMSINYLGSVYPSRAVITTMKERRVGRIVFVSSQAGQLGLFGFTAYSASKFAIRGLAEALQMEVKPYNVYITVAYPPDTDTPGFAEENRTKPLETRLISETTSVCKPEQVAKQIVKDAIQGNFNSSLGSDGYMLSALTCGMAPVTSITEGLQQVVTMGLFRTIALFYLGSFDSIVRRCMMQREKSENADKTA [KDSR]    60
MEGQRWLPLEANPEVTNQFLKQLGLHPNWQFVDVYGMDPELLSMVPRPVCAVLLLFPITEKYEVFRTEEEEKIKSQGQDVTSSVYFMKQTISNACGTIGLIHAIANNKDKMHFESGSTLKKFLEESVSMSPEERARYLENYDAIRVTHETSAHEGQTEAPSIDEKVDLHFIALVHVDGHLYELDGRKPFPINHGETSDETLLEDAIEVCKKFMERDPDELRFNAIALSAA [UCHL3]    52.2
KIDINS220    52.9
MASGVTVNDEVIKVFNDMKVRKSSTQEEIKKRKKAVLFCLSDDKRQIIVEEAKQILVGDIGDTVEDPYTSFVKLLPLNDCRYALYDATYETKESKKEDLVFIFWAPESAPLKSKMIYASSKDAIKKKFTGIKHEWQVNGLDDIKDRSTLGEKLGGNVVVSLEGKPL [CFL2]    55.1

The substance MAVTITLKTLQQQTFKIRMEPDETVKVLKEKIEAEKGRDAFPVAGQKLIYAGKILSDDVPIRDYRIDEKNFVVVMVTKTKAGQGTSAPPEASPTAAPESSTSFPPAPTSGMSHPPPAAREDKSPSEESAPTTSPESVSGSVPSSGSSGREEDAASTLVTGSEYETMLTEIMSMGYERERVVAALRASYNNPHRAVEYLLTGIPGSPEPEHGSVQESQVSEQPATEAAGENPLEFLRDQPQFQNMRQVIQQNPALLPALLQQLGQENPQLLQQISRHQEQFIQMLNEPPGELADISDVEGEVGAIGEEAPQMNYIQVTPQEKEAIERLKALGFPESLVIQAYFACEKNENLAANFLLSQNFDDE [RAD23A] showed melting temperature equal to 56.3

The substance MEMSGLSFSEMEGCRNLLGLLDNDEIMALCDTVTNRLVQPQDRQDAVHAILAYSQSAEELLRRRKVHREVIFKYLATQGIVIPPATEKHNLIQHAKDYWQKQPQLKLKETPEPVTKTEDIHLFQQQVKEDKKAEKVDFRRLGEEFCHWFFGLLNSQNPFLGPPQDEWGPQHFWHDVKLRFYYNTSEQNVMDYHGAEIVSLRLLSLVKEEFLFLSPNLDSHGLKCASSPHGLVMVGVAGTVHRGNTCLGIFEQIFGLIRCPFVENTWKIKFINLKIMGESSLAPGTLPKPSVKFEQSDLEAFYNVITVCGTNEVRHNVKQASDSGTGDQV [C3ORF38] showed melting temperature equal to 50.4

The substance MICTFLRAVQYTEKLHRSSAKRLLLPYIVLNKACLKTEPSLRCGLQYQKKTLRPRCILGVTQKTIWTQGPSPRKAKEDGSKQVSVHRSQRGGTAVPTSQKVKEAGRDFTYLIVVLFGISITGGLFYTIFKELFSSSSPSKIYGRALEKCRSHPEVIGVFGESVKGYGEVTRRGRRQHVRFTEYVKDGLKHTCVKFYIEGSEPGKQGTVYAQVKENPGSGEYDFRYIFVEIESYPRRTIIIEDNRSQDD [TIMM21] showed melting temperature equal to 52.1

The substance MLSRAVCGTSRQLAPVLGYLGSRQKHSLPDLPYDYGALEPHINAQIMQLHHSKHHAAYVNNLNVTEEKYQEALAKGDVTAQIALQPALKFNGGGHINHSIFWTNLSPNGGGEPKGELLEAIKRDFGSFDKFKEKLTAASVGVQGSGWGWLGFNKERGHLQIAACPNQDPLQGTTGLIPLLGIDVWEHAYYLQYKNVRPDYLKAIWNVINWENVTERYMACKK [SOD2] showed melting temperature equal to 58.3

The substance MAIKSIASRLRGSRRFLSGFVAGAVVGAAGAGLAALQFFRSQGAEGALTGKQPDGSAEKAVLEQFGFPLTGTEARCYTNHALSYDQAKRVPRWVLEHISKSKIMGDADRKHCKFKPDPNIPPTFSAFNEDYVGSGWSRGHMAPAGNNKFSSKAMAETFYLSNIVPQDFDNNSGYWNRIEMYCRELTERFEDVWVVSGPLTLPQTRGDGKKIVSYQVIGEDNVAVPSHLYKVILARRSSVSTEPLALGAFVVPNEAIGFQPQLTEFQVSLQDLEKLSGLVFFPHLDRTSDIRNICSVDTCKLLDFQEFTLYLSTRKIEGARSVLRLEKIMENLKNAEIEPDDYFMSRYEKKLEELKAKEQSGTQIRKPS [EXOG] showed melting temperature equal to 52.8

The substance MQDPNADTEWNDILRKKGILPPKESLKELEEEAEEEQRILQQSVVKTYEDMTLEELEDHEDEFNEEDERAIEMYRRRRLAEWKATKLKNKFGEVLEISGKDYVQEVTKAGEGLWVILHLYKQGIPLCALINQHLSGLARKFPDVKFIKAISTTCIPNYPDRNLPTIFVYLEGDIKAQFIGPLVFGGMNLTRDELEWKLSESGAIMTDLEENPKKPIEDVLLSSVRRSVLMKRDSDSEGD [PDCL3] showed melting temperature equal to 54.2
